Test system: Hs-578T
ASSAY: NCI tumour cell line growth inhibition, 48 h
Activity calls are given as the source filed them. No stated cut-off is given here; in the data, active = GI50 up to about 1.1 µM and inactive = higher.
Output constraint: value belongs to y (active), n (inactive)

Some solved entries appear below for comparison.
COMPOUND: N#Cc1c(OCCF)c2ccccc2n2c1nc1ccccc12
CLASS_LABEL: n

COMPOUND: Cc1c(C(=O)OCc2ccccc2)[n+]([O-])c2cc(F)c(F)cc2[n+]1[O-]
CLASS_LABEL: y

COMPOUND: O=C(O)CNC(=O)c1ccccc1O [SALICYLURIC ACID]
CLASS_LABEL: n

Ask: // param item: CC1CC(=O)Nc2ccc(/N=N/N(C)C)cc2N1C=O (stereo not given) ; yields the recorded call
Reply: n

Ask: // param item: "COc1ccc(/C(Nc2ccccc2)=C(\CCl)c2ccccc2)cc1OC" ; yields the recorded call
Reply: n

Ask: // param item: "Nc1c(C(=O)O)nnc2cc(Cl)c(Cl)cc12" ; yields the recorded call
Reply: n

Ask: // param item: "CON(C)c1nc(N(C)OC)nc(N(C)OC)n1" ; yields the recorded call
Reply: n

* * *

System: OVCAR-4
ASSAY: NCI tumour cell line growth inhibition, 48 h
Activity calls are given as the source filed them. Rule as the data show it: active = GI50 up to about 1.1 µM and inactive = higher.
Output constraint: value belongs to active, inactive

COMPOUND: O=S(=O)(O)n1ccnc1
TESTED_ON: OVCAR-4
CLASS_LABEL: inactive
//
COMPOUND: COc1ccc(CN2C(=O)[C@@H]3Cc4c(OC)c(C)c(OC)c(OC)c4[C@H](/C2=C\c2cc(OC)c(OC)c(C)c2OC)N3C(=O)OC(C)C)cc1
TESTED_ON: OVCAR-4
CLASS_LABEL: inactive
//
COMPOUND: CC[C@H](C)[C@H]1NC(=O)[C@@H](NC(=O)[C@@H](CC(C)C)N(C)C(=O)C2CCCN2C(=O)[C@H](C)O)[C@@H](C)OC(=O)[C@H](Cc2ccc(OC)cc2)N(C)C(=O)[C@@H]2CCCN2C(=O)[C@H](CCCCNC(=O)OCc2ccccc2)NC(=O)[C@H](C)C(=O)[C@H](C(C)C)OC(=O)C[C@@H]1O (stereo partly specified)
TESTED_ON: OVCAR-4
CLASS_LABEL: inactive
//
COMPOUND: N#C/C(=C/n1c(=S)[nH]c2ccc([N+](=O)[O-])cc21)C(N)=O
TESTED_ON: OVCAR-4
CLASS_LABEL: inactive
//
COMPOUND: COc1cc(OC)c(OC)cc1/C=C/c1ccccn1
TESTED_ON: OVCAR-4
CLASS_LABEL: inactive

Ask: // param item: "CSC1=NN=C(SC)NN1" ; yields the recorded call
Reply: active

Ask: // param item: "O=c1c(-c2c(-c3ccccc3)oc3ccc(Cl)cc3c2=O)c(-c2ccccc2)oc2ccc(Cl)cc12" ; yields the recorded call
Reply: inactive

* * *

Tested on: UO-31
ASSAY: NCI tumour cell line growth inhibition, 48 h
Calls of active or inactive are those of the source. Cut-off read from the data, not from the text of the source: active = GI50 up to about 1.1 µM and inactive = higher.
Output constraint: value belongs to active, inactive

MOLECULE: CON(C)c1nc(N(C)OC)nc(N(C)OC)n1
CLASS_LABEL: inactive

Ask: // param item: "CCCC(=O)NC1=C(Cl)C(=O)c2ccccc2C1=O" ; yields the recorded call
Reply: inactive

Ask: // param item: "C=C1C[C@@H](O)[C@@H](Br)C(C)(C)[C@@]12C=CC(=O)CC2" ; yields the recorded call
Reply: inactive

Ask: // param item: C=C(C)C1CCC2(C)C1CCC1(C)C2CCC2C3(C)C4OC(OC4=O)C(C)(C)C3CCC21C (stereo not given) ; yields the recorded call
Reply: inactive

Ask: // param item: COC1OC2COC(c3ccccc3)OC2C(OC(=S)c2ccccc2)C1O (stereo not given) ; yields the recorded call
Reply: inactive

Ask: // param item: "O=c1[nH]c2cc3cccnc3c(Cl)c2nc1C(F)(F)F" ; yields the recorded call
Reply: inactive

Ask: // param item: CC(=O)CC(=O)OC1CC(C)CCC1C(C)C (stereo not given) ; yields the recorded call
Reply: inactive

Ask: // param item: CCC(C)N1CN(c2ccccc2)C2(CCN(CCCC3(c4ccc(F)cc4)OCCO3)CC2)C1=O (stereo not given) ; yields the recorded call
Reply: inactive
